Target: Prothrombin (Homo sapiens, UniProt P00734)
Assay: Thrombin 1536 HTS Dose Response Confirmation. [Related pubchem assays: 1046 (Thrombin 1536 HTS; hits were confirmed in this assay)]
Format: functional
The source made the active and inactive calls.
Catalogue of compounds with associated IC50
PROPERTY MEASURED: IC50

[
  {
    "COMPOUND STRUCTURE STRING": "Nc1nc(-c2cccnc2)nn1C(=O)c1ccccc1Cl",
    "TARGET ENTITY": "Prothrombin (Homo sapiens, UniProt P00734)",
    "RECORDED RESULT": "0.0831 µM (active)"
  },
  {
    "COMPOUND STRUCTURE STRING": "Cc1occc1C(=O)Nc1cc(C(F)(F)F)ccc1Cl",
    "TARGET ENTITY": "Prothrombin (Homo sapiens, UniProt P00734)",
    "RECORDED RESULT": "> 50 µM (not active)"
  },
  {
    "COMPOUND STRUCTURE STRING": "COc1ccc(-c2nc(SC)n(C(=O)c3ccco3)n2)cc1",
    "TARGET ENTITY": "Prothrombin (Homo sapiens, UniProt P00734)",
    "RECORDED RESULT": "1.14 µM (active)"
  },
  {
    "COMPOUND STRUCTURE STRING": "Cc1nc2ccccc2c(=O)n1NC(=O)c1cc(Br)ccc1Cl",
    "TARGET ENTITY": "Prothrombin (Homo sapiens, UniProt P00734)",
    "RECORDED RESULT": "> 50 µM (not active)"
  },
  {
    "COMPOUND STRUCTURE STRING": "Cc1ccc(-c2nc(N)n(C(=O)Cc3ccccc3)n2)cc1",
    "TARGET ENTITY": "Prothrombin (Homo sapiens, UniProt P00734)",
    "RECORDED RESULT": "1.82 µM (active)"
  }
]

* * *

Target: Nonstructural protein 1 (Influenza A virus, UniProt Q194T2)
Sequence (Q194T2 whole entry): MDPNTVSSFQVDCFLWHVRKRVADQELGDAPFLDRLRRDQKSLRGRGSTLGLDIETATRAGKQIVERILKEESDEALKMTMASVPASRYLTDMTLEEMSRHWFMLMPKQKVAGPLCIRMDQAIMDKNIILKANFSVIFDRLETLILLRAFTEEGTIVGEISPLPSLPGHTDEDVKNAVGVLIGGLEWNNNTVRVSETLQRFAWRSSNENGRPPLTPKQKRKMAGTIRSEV
Type: functional, Influenza A virus (A/California/07/2009(H1N1))
The source made the active and inactive calls.
Let's look at some molecules and their measured IC50.

[
  {
    "MOLECULE": "CCN(C(C)=O)c1cnc(C=NNC(N)=S)c2ccccc12",
    "IC50": "6.69 µM (active)"
  },
  {
    "MOLECULE": "CCOC(=O)C(C(=O)OCC)c1cc(Br)c2noc3c2c1C(=O)c1ccccc1-3",
    "IC50": "35.5 µM (active)"
  },
  {
    "MOLECULE": "CC(=NNc1nc2ccccc2s1)c1ncccn1",
    "IC50": "5.05 µM (active)"
  },
  {
    "MOLECULE": "CCc1ccc(OCCNc2cc(N3CCNC(C)C3)ccc2[N+](=O)[O-])cc1 (centres undefined)",
    "IC50": "37.4 µM (active)"
  }
]

* * *

Molecular target: Fatty acid synthase (Homo sapiens)
Sequence (P49327 whole entry, the tested form may be a part): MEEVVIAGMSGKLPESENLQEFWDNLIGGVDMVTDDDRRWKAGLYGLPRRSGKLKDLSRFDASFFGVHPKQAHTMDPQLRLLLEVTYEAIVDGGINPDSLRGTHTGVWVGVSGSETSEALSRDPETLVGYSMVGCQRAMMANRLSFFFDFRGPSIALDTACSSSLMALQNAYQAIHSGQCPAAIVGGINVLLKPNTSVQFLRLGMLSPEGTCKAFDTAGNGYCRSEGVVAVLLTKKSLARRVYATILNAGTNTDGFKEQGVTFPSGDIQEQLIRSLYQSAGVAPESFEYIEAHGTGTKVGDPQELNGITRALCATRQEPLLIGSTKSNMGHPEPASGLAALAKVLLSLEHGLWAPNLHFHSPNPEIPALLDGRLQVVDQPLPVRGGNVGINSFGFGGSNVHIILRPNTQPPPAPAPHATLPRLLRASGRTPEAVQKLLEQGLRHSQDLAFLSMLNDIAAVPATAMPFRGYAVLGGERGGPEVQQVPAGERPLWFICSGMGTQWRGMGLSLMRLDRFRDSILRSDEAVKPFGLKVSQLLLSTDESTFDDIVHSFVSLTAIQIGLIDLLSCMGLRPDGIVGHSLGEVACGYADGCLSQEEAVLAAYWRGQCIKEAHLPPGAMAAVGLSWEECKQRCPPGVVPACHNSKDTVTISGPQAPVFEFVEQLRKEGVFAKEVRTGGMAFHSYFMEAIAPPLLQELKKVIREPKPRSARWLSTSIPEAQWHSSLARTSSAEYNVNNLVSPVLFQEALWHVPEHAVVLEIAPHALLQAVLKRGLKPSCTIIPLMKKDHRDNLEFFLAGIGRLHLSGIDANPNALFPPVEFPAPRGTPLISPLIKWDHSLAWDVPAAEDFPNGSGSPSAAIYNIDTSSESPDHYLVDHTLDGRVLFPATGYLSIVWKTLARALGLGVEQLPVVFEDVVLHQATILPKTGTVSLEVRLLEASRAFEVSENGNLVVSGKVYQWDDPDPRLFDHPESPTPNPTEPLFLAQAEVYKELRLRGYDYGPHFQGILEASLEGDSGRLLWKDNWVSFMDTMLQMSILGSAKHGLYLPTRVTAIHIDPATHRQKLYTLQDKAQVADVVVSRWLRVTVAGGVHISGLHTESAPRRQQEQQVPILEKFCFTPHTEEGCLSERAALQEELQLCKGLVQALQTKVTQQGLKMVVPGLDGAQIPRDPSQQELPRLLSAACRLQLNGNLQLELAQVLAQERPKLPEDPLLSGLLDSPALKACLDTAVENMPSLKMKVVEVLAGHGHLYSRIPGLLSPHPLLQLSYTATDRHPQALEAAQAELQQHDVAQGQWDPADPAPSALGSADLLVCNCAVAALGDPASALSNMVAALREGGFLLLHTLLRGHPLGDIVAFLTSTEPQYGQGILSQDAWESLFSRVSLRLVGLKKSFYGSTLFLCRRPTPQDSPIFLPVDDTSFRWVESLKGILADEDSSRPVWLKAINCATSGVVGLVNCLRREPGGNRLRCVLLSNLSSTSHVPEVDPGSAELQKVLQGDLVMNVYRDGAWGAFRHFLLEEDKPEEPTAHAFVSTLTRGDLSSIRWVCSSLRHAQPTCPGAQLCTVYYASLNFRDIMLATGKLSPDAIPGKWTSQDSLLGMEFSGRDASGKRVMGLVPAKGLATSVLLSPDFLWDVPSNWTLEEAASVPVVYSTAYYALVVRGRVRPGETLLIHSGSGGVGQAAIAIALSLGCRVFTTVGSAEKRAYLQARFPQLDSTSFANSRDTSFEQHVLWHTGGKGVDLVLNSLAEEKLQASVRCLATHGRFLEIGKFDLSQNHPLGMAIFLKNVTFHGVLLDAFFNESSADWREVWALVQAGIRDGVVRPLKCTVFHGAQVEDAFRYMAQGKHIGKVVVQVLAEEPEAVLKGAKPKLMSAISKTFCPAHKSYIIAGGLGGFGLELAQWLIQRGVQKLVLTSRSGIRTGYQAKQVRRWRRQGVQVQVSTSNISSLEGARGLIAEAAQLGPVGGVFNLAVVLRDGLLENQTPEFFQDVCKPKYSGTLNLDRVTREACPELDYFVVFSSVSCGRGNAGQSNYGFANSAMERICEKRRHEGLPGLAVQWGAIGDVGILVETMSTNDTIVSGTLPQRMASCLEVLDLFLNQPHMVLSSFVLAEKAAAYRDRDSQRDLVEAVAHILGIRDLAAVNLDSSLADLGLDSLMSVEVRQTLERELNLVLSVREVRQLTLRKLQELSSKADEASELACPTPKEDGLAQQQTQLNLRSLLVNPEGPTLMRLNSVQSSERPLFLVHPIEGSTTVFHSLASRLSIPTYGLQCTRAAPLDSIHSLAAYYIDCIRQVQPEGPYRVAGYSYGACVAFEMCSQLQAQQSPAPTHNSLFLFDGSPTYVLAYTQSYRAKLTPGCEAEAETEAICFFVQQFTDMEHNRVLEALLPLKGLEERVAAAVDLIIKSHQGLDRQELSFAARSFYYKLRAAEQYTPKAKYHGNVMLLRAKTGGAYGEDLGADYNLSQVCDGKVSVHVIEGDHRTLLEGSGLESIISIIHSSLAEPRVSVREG
Assay: FAS thioesterase domain inhibitors, dose response, biochemical, kinetic fluorescence intensity (AID 624326);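 also: rate of fluorescence rise from hydrolysis of a fluorogenic O-methyl fluorescein ester substrate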
Format: functional
Calls of active or inactive are those of the source.
Classes used: active, inactive

[
  {
    "COMPOUND": "CC1Cc2cc(-c3csc(NC(=O)Cc4cccs4)n3)ccc2N1S(C)(=O)=O (configuration not stated)",
    "TARGET ENTITY": "Fatty acid synthase (Homo sapiens)",
    "LABEL CLASS": "active"
  },
  {
    "COMPOUND": "O=C(CC1C[C@H](C(=O)N2CCOCC2)[C@@]2(CCC3CCCC3)c3[nH]c4ccccc4c3CCN2C1=O)NCCC1=CCCCC1 (some centres not stated)",
    "TARGET ENTITY": "Fatty acid synthase (Homo sapiens)",
    "LABEL CLASS": "inactive"
  },
  {
    "COMPOUND": "COc1ccc(NC(=O)/C(Cl)=C(/Cl)[S+]([O-])Cc2ccc(Cl)cc2)cn1 (configuration not stated)",
    "TARGET ENTITY": "Fatty acid synthase (Homo sapiens)",
    "LABEL CLASS": "active"
  },
  {
    "COMPOUND": "COc1ccccc1C(=O)Nc1nc(-c2ccc(S(=O)(=O)N3CCOCC3)cc2)cs1",
    "TARGET ENTITY": "Fatty acid synthase (Homo sapiens)",
    "LABEL CLASS": "active"
  },
  {
    "COMPOUND": "O=C(COC(=O)CC1CC2CCC1C2)Nc1cc([N+](=O)[O-])ccc1F (configuration not stated)",
    "TARGET ENTITY": "Fatty acid synthase (Homo sapiens)",
    "LABEL CLASS": "active"
  },
  {
    "COMPOUND": "Cc1ccc(C(=O)CN(CCC(=O)O)S(=O)(=O)c2ccc([N+](=O)[O-])cc2)cc1",
    "TARGET ENTITY": "Fatty acid synthase (Homo sapiens)",
    "LABEL CLASS": "active"
  },
  {
    "COMPOUND": "O=C(CCC(=O)Nc1cccc(Cl)c1)N/N=C/c1cc([N+](=O)[O-])ccc1O",
    "TARGET ENTITY": "Fatty acid synthase (Homo sapiens)",
    "LABEL CLASS": "active"
  }
]

* * *

Target: UniProt Q63470
Format: biochemical, Homo sapiens
The source made the active and inactive calls.
PROPERTY MEASURED: AC50

[
  {
    "COMPOUND STRUCTURE STRING": "COc1cccc(Nc2ncnc3sc(C)cc23)c1",
    "RECORDED RESULT": "3.81 µM (active)"
  },
  {
    "COMPOUND STRUCTURE STRING": "CCCN(CCC)CCNC(=O)c1cc2c(=O)n(C)c3ccccc3c2n1C",
    "RECORDED RESULT": "13.4 µM (active)"
  },
  {
    "COMPOUND STRUCTURE STRING": "COc1ccc2[nH]c3c(c2c1)CCNC3=O",
    "RECORDED RESULT": "0.845 µM (active)"
  },
  {
    "COMPOUND STRUCTURE STRING": "CS(=O)(=O)c1ccc2c(c1)SC1=NC(=O)/C(=C/c3ccc(O)c(O)c3)C(=N)N12",
    "RECORDED RESULT": "2.71 µM (active)"
  },
  {
    "COMPOUND STRUCTURE STRING": "COc1cc(/C=C2\\SC(N)=NC2=O)cc(Cl)c1O",
    "RECORDED RESULT": "18.6 µM (active)"
  }
]

* * *

# maps each entry to its AC50
Target: UniProt P9WMR3
Sequence (P9WMR3 whole entry): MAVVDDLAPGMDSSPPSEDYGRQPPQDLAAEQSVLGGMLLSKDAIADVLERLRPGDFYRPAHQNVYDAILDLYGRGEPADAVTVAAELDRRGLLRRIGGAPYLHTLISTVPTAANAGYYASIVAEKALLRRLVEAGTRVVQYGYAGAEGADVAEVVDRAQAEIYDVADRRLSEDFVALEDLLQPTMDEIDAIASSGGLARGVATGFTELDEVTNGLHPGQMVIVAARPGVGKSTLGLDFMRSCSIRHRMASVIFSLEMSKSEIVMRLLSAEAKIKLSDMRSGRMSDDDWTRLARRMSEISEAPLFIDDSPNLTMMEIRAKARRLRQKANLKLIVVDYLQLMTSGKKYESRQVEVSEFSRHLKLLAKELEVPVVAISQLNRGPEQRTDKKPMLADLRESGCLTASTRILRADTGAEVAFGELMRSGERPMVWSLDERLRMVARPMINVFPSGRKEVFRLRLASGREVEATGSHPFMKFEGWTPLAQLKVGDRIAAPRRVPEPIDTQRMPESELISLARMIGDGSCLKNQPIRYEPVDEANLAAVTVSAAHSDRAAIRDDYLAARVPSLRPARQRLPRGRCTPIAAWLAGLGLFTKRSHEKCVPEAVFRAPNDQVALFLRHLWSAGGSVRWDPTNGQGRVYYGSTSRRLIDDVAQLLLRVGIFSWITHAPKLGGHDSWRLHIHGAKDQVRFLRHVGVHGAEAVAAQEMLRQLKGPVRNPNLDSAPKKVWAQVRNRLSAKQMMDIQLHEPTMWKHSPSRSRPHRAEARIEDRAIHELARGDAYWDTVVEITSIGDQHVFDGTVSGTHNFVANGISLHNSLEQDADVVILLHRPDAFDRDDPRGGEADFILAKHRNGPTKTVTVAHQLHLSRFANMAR
Test: DnaB intein splicing inhibitors, dose response, biochemical, cell-free fluorescence (AID 449749)
Type: functional
Calls of active or inactive are those of the source.

[
  {
    "COMPOUND": "CC(=O)n1cc(N(C(=O)CCl)c2ccccc2)c2ccccc21",
    "AC50": "2.3 µM (active)"
  },
  {
    "COMPOUND": "CCOC(=O)C(C(=O)OCC)c1cc(Br)c2noc3c2c1C(=O)c1ccccc1-3",
    "AC50": "27.6 µM (active)"
  },
  {
    "COMPOUND": "NS(=O)(=O)c1ccc(NN=C2C(=O)NC(=S)NC2=O)cc1",
    "AC50": "51.7 µM (active)"
  },
  {
    "COMPOUND": "N#CCn1c(CCl)nc2ccccc2c1=O",
    "AC50": "80.6 µM (active)"
  },
  {
    "COMPOUND": "CC(=O)Nc1ccc(NC(=O)CSc2ncc(C(=O)Nc3ccccc3)c(=O)n2C)cc1",
    "AC50": "0.131 µM (active)"
  },
  {
    "COMPOUND": "CCCSc1nnc(Sc2nnnn2-c2ccccc2)s1",
    "AC50": "12.5 µM (active)"
  },
  {
    "COMPOUND": "COCc1n[nH]c2c1C(c1ccc(OC)c(OC)c1)C(C#N)=C(N)O2 (stereo not given)",
    "AC50": "9.47 µM (active)"
  },
  {
    "COMPOUND": "O=C1/C(=C/c2ccc(F)cc2)SC(=S)N1CC(=O)N1CCCCC1c1cccnc1 (stereo not given)",
    "AC50": "13.1 µM (active)"
  },
  {
    "COMPOUND": "COc1cccc(C(c2c(C)[nH]n(-c3ccccc3)c2=O)c2c(C)[nH]n(-c3ccccc3)c2=O)c1O",
    "AC50": "1.18 µM (active)"
  },
  {
    "COMPOUND": "Cc1cc(Br)c2c(c1)/C(=C/C(=O)c1cccs1)C(=O)N2",
    "AC50": "2.46 µM (active)"
  }
]
